system: Influenza A virus; test: Antiviral activity against influenza A (A/Washington/29/2009 (H1N1)) virus after 30 mins by NA-star substrate based chemiluminescent assay; format: functional, organism-based; settings: 0.5 h
MEASURE: pIC50
Recall that pIC50 is obtained by taking minus log10 of the concentration measured in molar.

Asked: Value lookup for pIC50; key = CO[C@@H]([C@@H]1OC(C(=O)O)=C[C@H](NC(=N)N)[C@H]1NC(C)=O)[C@H](O)CO
Given back: 9.31

Asked: # repeat for C/C=C\[C@@H]1C[C@H](C(=O)O)N[C@H]1[C@@H](NC(C)=O)[C@](C)(CCC)OC
Given back: 9.46

Asked: Field entry: CCC(CC)[C@H](NC(C)=O)[C@@H]1[C@H](O)[C@@H](C(=O)O)C[C@H]1NC(=N)N [PERAMIVIR ANHYDROUS]
Given back: 9.85
